Where do the numbers come from? From ChEMBL document CHEMBL3769384.

Assay: Clearance in CD1 mouse at 1 mg/kg, iv after 24 hrs by LC-MS/MS analysis
Assay type: ADME, organism-based
Conditions: in vivo
measure: clearance

>  <smiles_structure>
Cc1c2c(nn1-c1nnc(-c3ccc(OC(C)C)c(Cl)c3)s1)CCN(CCC(=O)O)C2.O=C(O)C(F)(F)F

>  <result>
16 mL/min/kg

$$$$

---

Target: Sphingosine 1-phosphate receptor 1 (Homo sapiens, UniProt P21453)
Sequence (P21453 whole entry): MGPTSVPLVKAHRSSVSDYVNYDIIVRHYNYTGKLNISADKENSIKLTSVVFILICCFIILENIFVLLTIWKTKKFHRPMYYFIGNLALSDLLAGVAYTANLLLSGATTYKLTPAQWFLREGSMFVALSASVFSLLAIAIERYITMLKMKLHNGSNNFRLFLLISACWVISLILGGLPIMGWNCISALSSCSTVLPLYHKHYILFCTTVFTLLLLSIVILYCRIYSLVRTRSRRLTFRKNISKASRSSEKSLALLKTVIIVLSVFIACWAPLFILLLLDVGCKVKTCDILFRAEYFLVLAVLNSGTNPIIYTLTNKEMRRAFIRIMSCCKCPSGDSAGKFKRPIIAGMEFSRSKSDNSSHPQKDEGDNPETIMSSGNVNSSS
Test: Agonist activity at human S1P1 receptor expressed in RH7777 cells by [35S]GTP-gammaS accumulation assay
Type: cell-based
pEC50: −log10 of the molar value.
Decision: pEC50 >= 6 yields true, all other cases yield false.

>  <smiles_structure>
CC(C)Oc1ccc(-c2nnc(-c3cncn3C)s2)cc1Cl

>  <label>
true

$$$$
>  <smiles_structure>
Cc1c(-c2noc(-c3ccc(OC(C)C)c(C#N)c3)n2)ccc2c1CCN(CCC(=O)O)C2

>  <label>
true

$$$$
>  <smiles_structure>
CC(C)Oc1ccc(-c2nnc(NC3CCN(CC(=O)O)CC3)s2)cc1Cl

>  <label>
false

$$$$

---

Experiment: Solubility of compound in FeSSIF at pH 6.5 after 24 hrs
Format: physicochemical
measure: solubility at 24 h (µg/mL)

>  <smiles_structure>
Cc1c2c(nn1-c1nnc(-c3ccc(OC(C)C)c(Cl)c3)s1)CCN(CCC(=O)O)C2.O=C(O)C(F)(F)F

>  <measure>
solubility at 24 h

>  <quantitative_readout>
4

$$$$
>  <smiles_structure>
Cc1c2c(nn1-c1nnc(-c3ccc(OC(C)C)c(Cl)c3)s1)CCN(CCC(=O)O)C2.Cl

>  <measure>
solubility at 24 h

>  <quantitative_readout>
46

$$$$

---

Biological target: Sphingosine 1-phosphate receptor 5 (Homo sapiens, UniProt Q9H228)
Sequence (Q9H228 whole entry): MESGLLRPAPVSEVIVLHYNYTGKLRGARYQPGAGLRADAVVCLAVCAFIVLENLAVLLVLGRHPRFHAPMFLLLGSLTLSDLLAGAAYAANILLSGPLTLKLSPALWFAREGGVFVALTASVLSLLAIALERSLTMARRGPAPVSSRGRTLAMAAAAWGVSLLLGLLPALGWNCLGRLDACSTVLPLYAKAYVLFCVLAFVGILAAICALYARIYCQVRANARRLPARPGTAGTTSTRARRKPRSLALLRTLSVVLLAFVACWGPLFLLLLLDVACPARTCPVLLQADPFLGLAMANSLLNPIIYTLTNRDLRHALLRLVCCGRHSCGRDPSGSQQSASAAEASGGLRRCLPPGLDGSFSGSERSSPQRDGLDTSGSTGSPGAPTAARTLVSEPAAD
Assay: Agonist activity at human S1P5 receptor expressed in CHO-K1 cells by aequorin calcium accumulation assay
pEC50: −log10 of the molar value.
measure: pEC50

>  <smiles_structure>
Cc1c2c(nn1-c1nnc(-c3ccc(OC(C)C)c(Cl)c3)s1)CCN(CCC(=O)O)C2

>  <assayed_system>
Sphingosine 1-phosphate receptor 5 (Homo sapiens, UniProt Q9H228)

>  <quantitative_readout>
7.78

$$$$

---

Assay: Intrinsic clearance in beagle dog hepatocytes at 0.5 uM after 2 hrs by LC-MS/MS analysis
Format: ADME, cell-based, Canis lupus familiaris, Hepatocyte
measure: CLH (mL/min/g)

>  <smiles_structure>
Cc1c2c(nn1-c1nnc(-c3ccc(OC(C)C)c(Cl)c3)s1)CCN(CCC(=O)O)C2

>  <units_symbol>
mL/min/g

>  <quantitative_readout>
6

$$$$

---

Assay: Half life in CD1 mouse at 1 mg/kg, iv after 24 hrs by LC-MS/MS analysis
Type: ADME, organism-based
Conditions: in vivo

>  <smiles_structure>
Cc1c2c(nn1-c1nnc(-c3ccc(OC(C)C)c(Cl)c3)s1)CCN(CCC(=O)O)C2.O=C(O)C(F)(F)F

>  <half-life>
3.8 h

$$$$

---

In this section we review reported pEC50 values for a set of compounds.
Target: Sphingosine 1-phosphate receptor 3 (Homo sapiens)
Sequence (Q99500 whole entry): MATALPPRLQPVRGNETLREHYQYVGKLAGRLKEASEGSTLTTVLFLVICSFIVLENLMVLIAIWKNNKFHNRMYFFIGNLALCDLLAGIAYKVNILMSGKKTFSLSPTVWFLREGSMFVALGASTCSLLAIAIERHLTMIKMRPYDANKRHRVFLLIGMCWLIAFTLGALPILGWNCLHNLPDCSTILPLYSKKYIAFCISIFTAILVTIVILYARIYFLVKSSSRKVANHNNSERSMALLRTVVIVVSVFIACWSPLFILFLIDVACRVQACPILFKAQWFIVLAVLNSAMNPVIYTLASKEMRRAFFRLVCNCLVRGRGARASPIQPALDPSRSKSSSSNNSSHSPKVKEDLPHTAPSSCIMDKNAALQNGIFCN
Test: Agonist activity at human S1P3 receptor expressed in RBL cells by [35S]GTP-gammaS accumulation assay
pEC50: −log10 of the molar value.

>  <smiles_structure>
CC(C)Oc1ccc(-c2nnc(-c3cncn3C)s2)cc1Cl

>  <pEC50>
< 4.50

$$$$
>  <smiles_structure>
CC(C)Oc1ccc(-c2nnc(-n3ncc4c3CCNC4)s2)cc1Cl

>  <pEC50>
< 4.50

$$$$
>  <smiles_structure>
Cc1c(-c2noc(-c3ccc(OC(C)C)c(C#N)c3)n2)ccc2c1CCN(CCC(=O)O)C2

>  <pEC50>
< 4.40

$$$$
>  <smiles_structure>
CC(C)Oc1ccc(-c2nnc(-n3ncc4c3CCN(CCC(=O)O)C4)s2)cc1Cl

>  <pEC50>
4.70

$$$$
>  <smiles_structure>
Cc1c2c(nn1-c1nnc(-c3ccc(OC(C)C)c(C#N)c3)s1)CCN(CCC(=O)O)C2

>  <pEC50>
< 4.50

$$$$
>  <smiles_structure>
CC(C)Oc1ccc(-c2nnc(-n3cc4c(n3)CCN(CCC(=O)O)C4)s2)cc1C#N

>  <pEC50>
< 4.50

$$$$
>  <smiles_structure>
CC(C)Oc1ccc(-c2nnc(-n3cc4c(n3)CCN(CCCC(=O)O)C4)s2)cc1Cl

>  <pEC50>
< 4.50

$$$$
>  <smiles_structure>
Cc1nc(C)c(-c2nnc(-c3ccc(OC(C)C)c(Cl)c3)s2)s1

>  <pEC50>
< 4.50

$$$$
>  <smiles_structure>
Cc1c(-c2nnc(-c3ccc(OC(C)C)c(Cl)c3)s2)cnn1CCC(=O)O

>  <pEC50>
< 4.50

$$$$
>  <smiles_structure>
CC(C)Oc1ccc(-c2nnc(-n3cc4c(n3)CCNC4)s2)cc1C#N

>  <pEC50>
< 4.50

$$$$

---

Test: Solubility of compound in FaSSIF at pH 6.5 after 24 hrs
Format: physicochemical
In this section we review reported solubility at 24 h values for a set of molecules.
measure: solubility at 24 h (µg/mL)

>  <smiles_structure>
Cc1c2c(nn1-c1nnc(-c3ccc(OC(C)C)c(Cl)c3)s1)CCN(CCC(=O)O)C2.Cl

>  <units_symbol>
µg/mL

>  <quantitative_readout>
16

$$$$
>  <smiles_structure>
Cc1c2c(nn1-c1nnc(-c3ccc(OC(C)C)c(Cl)c3)s1)CCN(CCC(=O)O)C2.O=C(O)C(F)(F)F

>  <units_symbol>
µg/mL

>  <quantitative_readout>
3

$$$$

---

Molecular target: Sphingosine 1-phosphate receptor 1 (Homo sapiens, UniProt P21453)
Assay: Agonist activity at human S1P1 receptor expressed in RH7777 cells by [35S]GTP-gammaS accumulation assay
Assay type: cell-based
Returns: string. Value is yes (1) if measured EC50 is below 600 nM, and no (0) if it is greater than or equal to it.

>  <smiles_structure>
Cc1c2c(nn1-c1nnc(-c3ccc(OC(C)C)c(C#N)c3)s1)CCN(CCC(=O)O)C2

>  <label>
yes (1)

$$$$
>  <smiles_structure>
CC(C)Oc1ccc(-c2nnc(NC3=CCNCC3)s2)cc1Cl

>  <label>
no (0)

$$$$
>  <smiles_structure>
Cc1nn(-c2nnc(-c3ccc(OC(C)C)c(Cl)c3)s2)c(C)c1CCC(=O)O

>  <label>
yes (1)

$$$$
>  <smiles_structure>
CC(C)Oc1ccc(-c2nnc(-n3cc4c(n3)CCNC4)s2)cc1C#N

>  <label>
yes (1)

$$$$
>  <smiles_structure>
Cc1c(-c2nnc(-c3ccc(OC(C)C)c(Cl)c3)s2)cnn1CCC(=O)O

>  <label>
no (0)

$$$$
>  <smiles_structure>
CC(C)Oc1ccc(-c2nnc(N3CCc4cc(CCC(=O)O)ccc43)s2)cc1Cl

>  <label>
yes (1)

$$$$
>  <smiles_structure>
CC(C)Oc1ccc(-c2nnc(-c3cnn(CCN4CCOCC4)c3)s2)cc1Cl

>  <label>
no (0)

$$$$
>  <smiles_structure>
CC(C)Oc1ccc(-c2nnc(NCCNCCC(=O)O)s2)cc1Cl

>  <label>
no (0)

$$$$
>  <smiles_structure>
CC(C)Oc1ccc(-c2nnc(-n3cc4c(n3)CCNC4)s2)cc1Cl

>  <label>
no (0)

$$$$
>  <smiles_structure>
CC(C)Oc1ccc(-c2nnc(-c3cn[nH]c3)s2)cc1Cl

>  <label>
no (0)

$$$$
>  <smiles_structure>
Cc1nc(C)c(-c2nnc(-c3ccc(OC(C)C)c(Cl)c3)s2)s1

>  <label>
yes (1)

$$$$
>  <smiles_structure>
CC(C)Oc1ccc(-c2nnc(N3CCNCC3)s2)cc1Cl

>  <label>
no (0)

$$$$
>  <smiles_structure>
CC(C)Oc1ccc(-c2nnc(-n3cc4c(n3)CCN(CCCC(=O)O)C4)s2)cc1Cl

>  <label>
yes (1)

$$$$
>  <smiles_structure>
CC(C)Oc1ccc(-c2nnc(N3CCOc4c(CCC(=O)O)cccc43)s2)cc1Cl

>  <label>
yes (1)

$$$$
>  <smiles_structure>
CC(C)Oc1ccc(-c2nnc(-n3ncc4c3CCN(CCC(=O)O)C4)s2)cc1Cl

>  <label>
yes (1)

$$$$
>  <smiles_structure>
CC(C)Oc1ccc(-c2nnc(-c3ccno3)s2)cc1Cl

>  <label>
no (0)

$$$$
>  <smiles_structure>
CC(C)Oc1ccc(-c2nnc(-n3cc4c(n3)CCN(CCC(=O)O)C4)s2)cc1C#N

>  <label>
yes (1)

$$$$
>  <smiles_structure>
CC(C)Oc1ccc(-c2nnc(-c3cnn(CC(=O)O)c3)s2)cc1Cl

>  <label>
no (0)

$$$$

---

Assay: Volume of distribution at steady state in CD1 mouse at 1 mg/kg, iv after 24 hrs by LC-MS/MS analysis
Type: ADME, organism-based
Conditions: in vivo, read-out: Vdss
measure: Vd

>  <smiles_structure>
Cc1c2c(nn1-c1nnc(-c3ccc(OC(C)C)c(Cl)c3)s1)CCN(CCC(=O)O)C2.O=C(O)C(F)(F)F

>  <result>
3.3 L/kg

$$$$
